- System: SF-295 CNS
- Assay Text: NCI tumour cell line growth inhibition, 48 h
Listing: TGI of selected compounds
Observable: TGI (µM)

O=C1c2cc(-c3ccccc3)cnc2S(=O)(=O)N1c1ccc(Br)cc1: 38.5
CC1=CCC([C@@](C)(O)CCCC(C)(C)N=C=S)CC1 (stereo not given in full): 36.3
C=C1CC(C#N)(C#N)[C@H]2C3CCCC3C[C@@H]12 (stereo not given in full) (tested in a mixture with another compound): 39.4

###

- Tested on: LXFL 529 NSCLC
- Assay Text: NCI tumour cell line growth inhibition, 48 h
Observable: TGI

COC(=O)/C(C#N)=C1\N=NNN1c1ccc(OC)cc1: > 100 µM
COC(=O)C1CCCC2(C1)OCCO2 (centres undefined): > 100 µM
Cc1ccc(C)c(NC(=O)c2cccc([N+](=O)[O-])c2O)c1: > 100 µM
CCOC(=O)C1S/C(=N\C(=N)N[N+](=O)[O-])N=C1C (centres undefined): > 100 µM
C/C(CC(=O)Nc1ccc(C)c(C)c1)=N\N(c1ccccc1)c1ccccc1: > 100 µM
Cc1ccccc1C(=O)c1cc(O)ccc1O: > 100 µM
COC(=O)/C(=N\NC(N)=S)C(C(=O)OC)C(=O)C(=O)Nc1ccc(C)cc1 (centres undefined): > 100 µM
COc1cccc(N2C(Cl)C(=O)C2c2c[nH]c3ccccc23)c1 (centres undefined): > 100 µM
O=C(OC1CCC(=C2SCCCS2)[C@H]1C1SCCCS1)c1ccccc1 (some centres undefined): > 100 µM

###

- Test system: UACC-62 melanoma
- Assay Text: NCI tumour cell line growth inhibition, 48 h
Listing: GI50 of selected compounds
Observable: GI50

COc1cc(C(=O)N2CCN(C(=O)c3cc(OC)c(OC)c(OC)c3)C2=S)cc(OC)c1OC: 14.9 µM
O=C(NC[C@H](O)CN1CCc2ccccc2C1)c1cc(NC2COC2)ncn1: 21.3 µM
O=C(Cc1ccc(F)c(Cl)c1)Nc1cc(C2(C(F)(F)F)CC2)nn1CC1CCCCC1: 3.37 µM
N#Cc1nn(-c2cc(=O)[nH]c3ccc(Cl)cc23)c(N)c1C#N: > 100 µM
NC1CCN(Cc2ccccc2)CC1: > 100 µM

###

- Tested on: LOX IMVI melanoma
- Assay Text: NCI tumour cell line growth inhibition, 48 h
Observable: TGI

COC(=O)c1ccc2c(c1)C(=O)c1c-2n(CCCN=[N+]=[N-])c(=O)c2cc(OC)c(OC)cc12: > 100 µM
COc1ccc(-c2ccc(=O)oc2C#Cc2cc(OC)c(OC)c(OC)c2)cc1O: > 100 µM
O=C(/C=C/c1ccc[nH]1)c1ccc(-n2ccc(C(F)(F)F)n2)cc1: > 100 µM
Cc1ccc(/C=N\NC2c3cc(Cl)ccc3Nc3nc(=O)[nH]c(C)c32)cc1 (centres undefined): > 100 µM
O=C(NCP(=O)(Oc1ccccc1)Oc1ccccc1)OCc1ccccc1: > 100 µM
O=C(NC[C@H](O)CN1CCc2ccccc2C1)c1cc(NC2COC2)ncn1: 23.3 µM
Cc1nn(-c2ccccc2)c2c1C(c1cc3ccccc3nc1Cl)NC(=O)N2 (centres undefined): 44.8 µM
COc1ccc(-c2nnc3n(C)c(=O)c4ccccc4n23)cc1N: > 100 µM
CC12CCC(=O)C[C@H]1CCC(OC=O)C2Br (some centres undefined): > 100 µM
CCOC(=O)c1nc2c(OC)nn(O)cc-2c1[N+](=O)[O-]: 30 µM
O=C1NC2c3c(I)sc(I)c3C(O)C2O1 (centres undefined): > 100 µM
CC(C)(C)[Si](C)(C)OCC1OC(n2ccc(=O)[nH]c2=O)C(O[Si](C)(C)C(C)(C)C)/C1=C/C#N (centres undefined): > 51.2 µM
NNC(=O)CNc1cccc(Br)c1: > 100 µM
CCOC(=O)c1cccc(N=Nc2nc[nH]c2/C=C/C(=O)OC)c1: > 100 µM
O=C(CC1C(=O)Nc2ccccc2S1=O)Nc1cc(Cl)ccc1Cl (centres undefined): > 100 µM
CC(C)(/C=C(\C#N)C(=O)N1CCC[C@@H](n2nc(-c3ccc(Oc4ccccc4)cc3F)c3c(N)ncnc32)C1)N1CCN(C2COC2)CC1: 15.2 µM
C[C@H](CCC(=O)O)[C@H]1CC[C@H]2[C@@H]3C(=O)C[C@@H]4C[C@H](O)CC[C@]4(C)[C@H]3C[C@H](O)[C@]12C: > 100 µM
N#CC(C#N)=C1SC(=Nc2ccccc2)C(=Nc2ccccc2)N1c1ccccc1: 24.4 µM
COc1cc(N(CCC#N)CCC#N)ccc1/C(N=Nc1ccc(Cl)cc1)=N/NC(=O)c1cc(Br)ccc1O: > 150 µg/mL
COc1c(O)c2c(=O)cc3c4c5c(cc(=O)c6c(O)c(OC)c(CC(C)O)c(c(c1CC(C)O)c24)c65)OCO3 (centres undefined): 2.28 µM
COc1ccc(C2OC(c3ccncc3)=NN2C)cc1F (centres undefined): > 100 µM
Cc1cccc(C)c1NC(=O)C(Cc1c[nH]c2ccccc12)NC(=O)OCc1ccccc1 (centres undefined): 53.8 µM
CC(=O)ON1CCCC(P(=O)(OCCSC(=O)C(C)(C)C)OCCSC(=O)C(C)(C)C)C1=O (centres undefined): 95.5 µM
O=c1[nH][nH]c(=O)n1CCCCCCn1c(=O)[nH][nH]c1=O: > 100 µM
